target: T1, serum purified human Complement Factor D (human, UniProt P00746 26-253); assay: SPR Biacore, antibody on protein A chip, single cycle kinetics, 25 C;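 further: antibodies captured to roughly 70 RU on the protein A surface in HBS-EP+ running buffer, with kinetic constants derived by BIAevaluation fitting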
T1 construct: Serum purified protein flowed over the captured antibodies; also called CFD; human CFD
T1 sequence (P00746 26-253): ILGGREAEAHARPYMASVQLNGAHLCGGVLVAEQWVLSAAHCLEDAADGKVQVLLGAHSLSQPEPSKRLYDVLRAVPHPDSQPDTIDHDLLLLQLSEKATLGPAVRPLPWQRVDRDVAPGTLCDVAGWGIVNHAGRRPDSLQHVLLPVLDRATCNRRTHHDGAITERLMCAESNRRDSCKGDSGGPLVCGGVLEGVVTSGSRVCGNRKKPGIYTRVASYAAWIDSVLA
parameterMeasured: kon (M⁻¹ s⁻¹)
# unit: M⁻¹ s⁻¹ | format: bare number

Example entries begin here.
- 31S54V59D / 32W60W101V (antibody, V domains shown, KCD119 TAF variant; full antibody captured on protein A) VH: EVQLVESGGGLVQPGGSLRLSCAASGYTFTSYYMNWVRQAPGKGLEWIGDINPVTGDTDYNADFKRRFTFSLDTSKSTAYLQMNSLRAEDTAVYYCTREGPSFAYWGQGTLVTVSS VL: DIQLTQSPSSLSASVGDRVTITCRSSQTIVHWNGDTYLEWYQQKPGKAPNLLIYKVSNRWSGVPSRFSGSGSGTDFTLTISSLQPEDFATYYCFQGSHVPVTFGQGTKVEIK: 5.58e+06
- 28S31S54V59D / 101V (antibody, V domains shown, KCD119 TAF variant; full antibody captured on protein A) VH: EVQLVESGGGLVQPGGSLRLSCAASGYSFTSYYMNWVRQAPGKGLEWIGDINPVTGDTDYNADFKRRFTFSLDTSKSTAYLQMNSLRAEDTAVYYCTREGPSFAYWGQGTLVTVSS VL: DIQLTQSPSSLSASVGDRVTITCRSSQTIVHSNGDTYLEWYQQKPGKAPNLLIYKVSNRFSGVPSRFSGSGSGTDFTLTISSLQPEDFATYYCFQGSHVPVTFGQGTKVEIK: 7.64e+06
- 28V31S54V59D / 101V (antibody, V domains shown, KCD119 TAF variant; full antibody captured on protein A) VH: EVQLVESGGGLVQPGGSLRLSCAASGYVFTSYYMNWVRQAPGKGLEWIGDINPVTGDTDYNADFKRRFTFSLDTSKSTAYLQMNSLRAEDTAVYYCTREGPSFAYWGQGTLVTVSS VL: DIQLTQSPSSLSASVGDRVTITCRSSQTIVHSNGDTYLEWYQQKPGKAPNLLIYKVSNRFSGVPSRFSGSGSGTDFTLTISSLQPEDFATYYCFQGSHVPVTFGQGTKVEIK: 7.91e+06

Query: Consider the binder 54V59D / 34D50V101V (antibody, V domains shown, KCD119 TAF variant; full antibody captured on protein A) VH: EVQLVESGGGLVQPGGSLRLSCAASGYTFTDYYMNWVRQAPGKGLEWIGDINPVTGDTDYNADFKRRFTFSLDTSKSTAYLQMNSLRAEDTAVYYCTREGPSFAYWGQGTLVTVSS VL: DIQLTQSPSSLSASVGDRVTITCRSSQTIVHSNDDTYLEWYQQKPGKAPVLLIYKVSNRFSGVPSRFSGSGSGTDFTLTISSLQPEDFATYYCFQGSHVPVTFGQGTKVEIK and give its measured kon.
Result: 7.26e+06

Query: Consider the binder 54V / 101V (antibody, V domains shown, KCD119 TAF variant; full antibody captured on protein A) VH: EVQLVESGGGLVQPGGSLRLSCAASGYTFTDYYMNWVRQAPGKGLEWIGDINPVTGDTSYNADFKRRFTFSLDTSKSTAYLQMNSLRAEDTAVYYCTREGPSFAYWGQGTLVTVSS VL: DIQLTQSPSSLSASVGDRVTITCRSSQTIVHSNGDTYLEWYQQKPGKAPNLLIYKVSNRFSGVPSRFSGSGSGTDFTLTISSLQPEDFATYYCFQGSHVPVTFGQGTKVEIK and give its measured kon.
Result: 7.14e+06
